SYSTEM NAME: human recombinant GR (Homo sapiens)
Construct: purchased PanVera P2812
Sequence (P04150 whole entry): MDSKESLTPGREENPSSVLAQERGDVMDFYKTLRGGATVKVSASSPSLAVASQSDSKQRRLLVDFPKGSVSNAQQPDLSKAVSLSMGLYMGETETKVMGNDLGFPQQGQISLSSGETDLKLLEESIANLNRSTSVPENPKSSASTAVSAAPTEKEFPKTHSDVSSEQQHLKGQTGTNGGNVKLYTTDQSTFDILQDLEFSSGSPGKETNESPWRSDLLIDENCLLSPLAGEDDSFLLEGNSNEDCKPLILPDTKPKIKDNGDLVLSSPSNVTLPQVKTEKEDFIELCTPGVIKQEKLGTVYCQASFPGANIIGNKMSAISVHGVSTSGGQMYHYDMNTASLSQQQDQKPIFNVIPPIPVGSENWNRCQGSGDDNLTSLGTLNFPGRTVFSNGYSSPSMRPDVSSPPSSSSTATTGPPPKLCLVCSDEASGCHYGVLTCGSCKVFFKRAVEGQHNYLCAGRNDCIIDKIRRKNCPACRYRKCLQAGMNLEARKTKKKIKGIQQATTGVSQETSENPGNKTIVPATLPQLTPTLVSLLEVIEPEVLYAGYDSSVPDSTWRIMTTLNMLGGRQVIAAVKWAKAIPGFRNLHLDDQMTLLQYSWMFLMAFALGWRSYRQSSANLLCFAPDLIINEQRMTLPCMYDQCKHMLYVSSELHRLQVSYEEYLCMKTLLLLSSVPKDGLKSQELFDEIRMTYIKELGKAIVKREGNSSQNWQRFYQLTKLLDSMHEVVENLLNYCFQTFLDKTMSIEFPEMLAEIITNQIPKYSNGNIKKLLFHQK
MEASUREMENT DESCRIPTION: Human glucocorticoid receptor (GR) fluorescence polarisation (FP) binding assay
ASSAY CONTEXT: human recombinant GR, fluorescence polarisation binding assay; read-out: GR binding
// reported Ki for each item listed

{"columns": ["MOLECULE", "Ki"],
 "data": [
  ["Cc1ccnc(C(=O)[C@]23Cc4cnn(-c5ccc(F)cc5)c4C=C2CCN(S(=O)(=O)c2cc(C)nn2C)C3)c1 [Example 11BA]", "< 0.5 nM"],
  ["Cc1ccnc(C(=O)[C@]23Cc4cnn(-c5ccc(F)cc5)c4C=C2CCN(S(=O)(=O)c2cc(F)cc(F)c2)C3)c1 [Example 11W]", "< 0.5 nM"],
  ["Cc1ccnc(C(=O)[C@]23Cc4cnn(-c5ccc(F)cc5)c4C=C2CCN(S(=O)(=O)c2ccc4c(c2)CC(=O)N4C)C3)c1 [Example 11AO]", "< 0.5 nM"]
]}

Attention now shifts to the item below.
*Q* Let me know recorded Ki for O=C(c1ccnc(N2CCCC2)c1)[C@]12Cc3cnn(-c4ccc(F)cc4)c3C=C1CCN(S(=O)(=O)c1ccc(F)c(F)c1)C2 [Example 11BH] , thanks.
*A* > 1 nM

----------
System: induction of TAT by dexamethasone in HepG2 cells
MEASUREMENT DESCRIPTION: HepG2 tyrosine aminotransferase (TAT) assay
Format: cell-based, human
ASSAY CONTEXT: HepG2 cells, challenge of 100 nM dexamethasone; Ki from IC50 by Cheng and Prusoff equation
Description: Example 21. HepG2 Tyrosine Aminotransferase (TAT) Assay Glucocorticoid mediated activation of TAT occurs by transactivation of glucocorticoid response elements in the TAT promoter by glucocorticoid receptor agonist complex. TAT activity was measured as outlined in the literature by A. Ali et al., J. Med. Chem., 2004, 47, 2441-2452. HepG2 cells were cultured using MEME media supplemented with 10% (v/v) foetal bovine serum; 2 mM L-glutamine and 1% (v/v) NEAA at 37° C., 5%/95% (v/v) CO2/air. […]
// reported Ki for each item listed

Below, 2 molecules whose answers are already recorded.
{"columns": ["MOLECULE", "Ki"],
 "data": [
  ["Cc1ccnc(C(=O)[C@]23Cc4cnn(-c5ccc(F)cc5)c4C=C2CCN(S(=O)(=O)c2ccnc(C(F)(F)F)c2)C3)c1 [Example 11BB]", "< 20 nM"],
  ["Cc1ccnc(C(=O)[C@]23Cc4cnn(-c5ccc(F)cc5)c4C=C2CCN(S(=O)(=O)c2ccn(C)n2)C3)c1 [Example 11AK]", "< 20 nM"]
]}

*Q* Let me know recorded Ki for O=C(c1ccccn1)[C@]12Cc3cnn(-c4ccc(F)cc4)c3C=C1CCN(S(=O)(=O)c1ccc(N3CCCC3)nc1)C2 [Example 8] , thanks.
*A* ≥ 100 nM

*Q* Let me know recorded Ki for O=C(c1cocn1)[C@]12Cc3cnn(-c4ccc(F)cc4)c3C=C1CCN(S(=O)(=O)c1ccc(C(F)(F)F)cc1)C2 [Example 1E] , thanks.
*A* 20 to 100 nM

*Q* Let me know recorded Ki for N#Cc1ccc(S(=O)(=O)N2CCC3=Cc4c(cnn4-c4ccc(F)cc4)C[C@]3(C(=O)c3ccccn3)C2)cc1 [Example 2Q] , thanks.
*A* 20 to 100 nM

*Q* Let me know recorded Ki for CCn1ncc(S(=O)(=O)N2CCC3=Cc4c(cnn4-c4ccc(F)cc4)C[C@]3(C(=O)c3ccccn3)C2)n1 [Example 11CH] , thanks.
*A* < 20 nM
